tested on: Sonic hedgehog protein (Shh); assay: Sonic hedgehog microarray binding compounds – biochemical, small-molecule microarray, 635/667 nm fluorescence, primary screen (AID 1151); conditions: 635 nm fluorescence, higher = more signal;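 further: Shh protein binding to compounds spotted on small-molecule microarray slides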
Respond with Y for composite z-score values of 0.1 and above, N for values below.

Problem: composite z-score >= 0.1 for "CCCNC(=O)[C@@H]1c2ccccc2C(=O)N(Cc2ccc(OC(F)(F)F)cc2)[C@H]1c1ccc(CO)cc1" ?
Result: Y

Problem: Reported composite z-score at or above 0.1? "CCOC(=O)C[C@H]1[C@H](OC(=O)c2ccc(C(=O)c3ccccc3)cc2)[C@@H](NC(=O)C2CCCCC2)c2cc(OCCCO)ccc2N1C(=O)c1ccc2ccccc2n1"
Result: Y

Problem: Tell me whether composite z-score is at least 0.1 here: "CC(C)=C1C(=O)C(c2ccccc2)=C2CN3C(=O)N(CCc4ccccc4)C(=O)[C@]3(Cc3ccc(C(F)(F)F)cc3)[C@H]21"
Result: N

Problem: Identify whether the reported composite z-score of the following compound is 0.1 or greater: CC(=O)N1CC2(CC2)CC1c1ccccc1 (stereo unspecified)
Result: N

Problem: Hi team, for "COC(=O)[C@@]1(Cc2ccc(OC)cc2)[C@H]2c3cc(C(=O)N4CCCC4)n(CCO)c3C[C@H]2CN1C(=O)c1ccccc1" , is the recorded composite z-score at or above 0.1?
Result: N

Problem: Threshold query (composite z-score >= 0.1) on COc1cc2c(cc1O)C(C1CC1)N(C)CC2 (stereo unspecified)
Result: N

Problem: Decide: composite z-score of "COc1ccc([C@H]2OC[C@@H]3C[C@H](Cc4ccccc4)C(=O)N32)cc1" >= 0.1?
Result: Y

Problem: Does composite z-score meet or surpass 0.1 for "O=C1[C@H]2C=C(I)[C@H](C[C@@H]2OCCOCCO)[C@@]12CO2" ?
Result: Y

Problem: Test whether the compound "CCOC(=O)C1=C[C@@H](c2ccccc2)N(S(=O)(=O)c2ccc(C)cc2)[C@H]1c1ccc(OC)cc1" records composite z-score of 0.1 or higher.
Result: N

Problem: Assess whether reported composite z-score for C=CCC(OC(C)=O)[C@@H]1[C@@H](N(Cc2cccc3ccccc23)C(=O)Cc2ccc(OC)cc2)c2cc(OCCCO)ccc2N1C(=O)c1ccc(-c2ccccc2)cc1 (stereo partly specified) sits at 0.1 or higher.
Result: Y

Problem: Record "CCCC=C(CCC)[C@@H](NC(=O)c1cccs1)c1ccc(C(=O)OC)cc1" ; criterion: composite z-score no lower than 0.1. Met?
Result: N

Problem: Test whether the compound "COC(=O)[C@@H]1N=C(c2ccc(OCCCO)cc2)O[C@@H]1c1ccccc1" records composite z-score of 0.1 or higher.
Result: N

Problem: hey, is composite z-score for this one >= 0.1? "C=CC[C@@]1(C(=O)NCCCOC)N=C(c2ccc(OCCCO)cc2)O[C@@H]1c1ccccc1"
Result: N

Problem: hey, is composite z-score for this one >= 0.1? "CC(C)N1C(=O)C[C@@](C(=O)NC2CC2)(c2ccc([N+](=O)[O-])cc2)[C@H]1c1ccc(CO)cc1"
Result: N

Problem: Is reported composite z-score greater than or equal to 0.1 here: "COCCOC(=O)N1C(=O)[C@@]2(c3cc(C#CC4=CCCCC4)ccc31)[C@H](C(=O)Nc1nc3ccccc3s1)[C@H]1C(=O)O[C@H](c3ccccc3)[C@H](c3ccccc3)N1[C@@H]2c1ccc(O)cc1"
Result: Y

Problem: Hi team, for "Cc1ccc(S[C@]2(C(=O)NCC(F)(F)F)CC(=O)N(Cc3cc(C(F)(F)F)cc(C(F)(F)F)c3)[C@@H]2c2ccc(CO)cc2I)cc1" , is the recorded composite z-score at or above 0.1?
Result: N
